Entry source: PubChem BioAssay AID1159580

# normalized growth annotations
# assay.details: chemical genetic growth profiling, strain panel (AID 1159580);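 also: tested at 20 µM; growth read once vehicle control cultures reached saturation at 30 °C; 1 = growth at the plate median or of vehicle wells; lower values mean less growth of the strain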
# condition.parameters: S. cerevisiae deletion strains, growth OD, locus YBL061C, strain skt5, stronger effect = lower value
In all, about 5,500 compounds went through this assay and about 2,000 (36%) were called active. Inconclusive results (about 18%) are left out. Some of the results follow.
# print the numeric value only

Record excerpt, results attached:
compound: C[C@@H]1O[C@@H](O[C@H]2CC[C@]3(C=O)C4CC[C@]5(C)[C@@H](C6=CC(=O)OC6)CC[C@]5(O)C4CC[C@]3(O)C2)[C@H](O)[C@H](O)[C@H]1O (some centres undefined)
measured: 0.991
--
compound: CCCc1nc(C)c2c(=O)[nH]c(-c3cc(S(=O)(=O)N4CCN(CC)CC4)ccc3OCC)nn12
measured: 0.979
--
compound: O=C1CC2(CCCC2)CC(=O)N1CCCCN1CCN(c2ncccn2)CC1
measured: 0.995

# input for lookup
# input Hello, please tell me recorded normalized growth for this one: C[C@H]1O[C@@H](O[C@H]2[C@@H](O)C[C@H](O[C@H]3[C@@H](O)C[C@H](O[C@H]4CC[C@]5(C)C6CC[C@]7(C)[C@@H](C8=CC(=O)OC8)CC[C@]7(O)C6CC[C@@H]5C4)O[C@@H]3C)O[C@@H]2C)C[C@H](O)[C@@H]1O (some centres undefined)
# output 0.975

---

# assay.details: chemical genetic growth profiling, strain panel (AID 1159580);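 also: tested at 20 µM; growth read once vehicle control cultures reached saturation at 30 °C; 1 = growth at the plate median or of vehicle wells; lower values mean less growth of the strain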
# condition.parameters: S. cerevisiae deletion strains, growth OD, locus YLL026W, stronger effect = lower value
Out of some 5,500 compounds screened, about 2,000 (36%) were called active. Another 18% or so got no clear call; they are omitted. The list shows a part of the results.
measurement.name: normalized growth
# print the numeric value only

Record excerpt, results attached:
compound: O=C(O)c1ccccc1O
measured: 0.991

compound: CCC(=O)NCC[C@@H]1CCc2ccc3c(c21)CCO3
measured: 1

compound: CC1(C)C(O)CC(=O)C2(C)C1CC(O)C1(C)C2CCC2(C)C(c3ccoc3)OC(=O)C3OC321 (stereo not given)
measured: 0.997

compound: O=c1c(-c2ccc(O)cc2)coc2c(C3O[C@H](CO)[C@@H](O)[C@H](O)[C@H]3O)c(O)ccc12 (stereo not given in full)
measured: 0.993

# input Hello, please tell me recorded normalized growth for this one: CC1=CC(=O)C2C(C)(C)CCC[C@]2(C)[C@@]1(O)CCc1ccoc1 (stereo not given in full)
# output 0.994

# input Hello, please tell me recorded normalized growth for this one: O=c1c(O)cc([C@H]2Oc3cc(O)cc(O)c3C[C@H]2O)cc2c([C@H]3Oc4cc(O)cc(O)c4C[C@H]3O)cc(O)c(O)c12
# output 1.04

# input Hello, please tell me recorded normalized growth for this one: C[C@@H]1O[C@@H](O[C@H]2CC[C@]3(C=O)C4CC[C@]5(C)[C@@H](C6=CC(=O)OC6)CC[C@]5(O)C4CC[C@]3(O)C2)[C@H](O)[C@H](O)[C@H]1O (stereo not given in full)
# output 0.995

# input Hello, please tell me recorded normalized growth for this one: COC1CC(OC2CCC3(C)C(CCC4C3CCC3(C)C(C5=CC(=O)OC5)C(OC(C)=O)CC43O)C2)OC(C)C1O (stereo not given)
# output 1.02

# input Hello, please tell me recorded normalized growth for this one: O=C1CC2(CCCC2)CC(=O)N1CCCCN1CCN(c2ncccn2)CC1
# output 0.987

# input Hello, please tell me recorded normalized growth for this one: O=c1c2cc(O)c(O)cc2oc2cc(O)c(C3O[C@H](CO)[C@H](O)[C@@H](O)[C@H]3O)c(O)c12 (stereo not given in full)
# output 1.02
